Values from patent US12410160B2

# tested system: human KHK-A (Homo sapiens (Human))
# Sequence (P50053 other isoform, or with tags, fused parts or gaps): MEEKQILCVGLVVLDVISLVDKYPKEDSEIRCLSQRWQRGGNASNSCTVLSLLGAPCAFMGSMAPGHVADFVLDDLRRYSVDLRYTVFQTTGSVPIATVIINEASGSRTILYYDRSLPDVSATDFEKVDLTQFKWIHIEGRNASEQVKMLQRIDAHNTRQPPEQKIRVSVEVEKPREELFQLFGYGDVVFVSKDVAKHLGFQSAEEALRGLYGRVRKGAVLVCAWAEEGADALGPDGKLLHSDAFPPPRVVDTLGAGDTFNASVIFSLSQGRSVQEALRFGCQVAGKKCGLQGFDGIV
# procedure details: KHK Biochemical Assay (IC50), ADP-Glo, KHK-A
# experimental parameters: ADP-Glo; average of at least two separate assays
quantity: IC50 (nM)
API: value field is a number in nM; no unit string.

Ask: // lookup IC50 | system=human KHK-A (Homo sapiens (Human)) | key= C[C@H]1CCN1c1nc2c(c(-c3cccc(C45CCC(C4)C5C(=O)O)c3)n1)CCC2 (stereo partly shown)
Result: 94.1

Ask: Query IC50 on human KHK-A (Homo sapiens (Human)) for C[C@H]1[C@H](O)CN1c1nc(-c2cccc(CNS(C)(=O)=O)c2)c2c(n1)C(F)(F)CC2
Result: 6.6

Ask: Please state recorded IC50 (tested on human KHK-A (Homo sapiens (Human))) of C[C@H]1[C@H](O)CN1c1nc(-c2ccc(C(N)=O)cc2)c2c(n1)C(F)(F)CCC2
Result: 217

Ask: Field: IC50 (human KHK-A (Homo sapiens (Human))). Entry: C[C@H]1CCN1c1nc2c(c(-c3cccc(NS(C)(=O)=O)c3)n1)CCC2
Result: 31.8

Ask: Which IC50 is reported with human KHK-A (Homo sapiens (Human)) for this entry: C[C@H]1CCN1c1nc2c(c(-c3ccnc(NCCO)c3)n1)CCC2 ?
Result: 42.6

Ask: API: value(readout=IC50, system=human KHK-A (Homo sapiens (Human))) for record C[C@H]1CCN1c1nc2c(c(-c3cnc(C(C)(C)O)s3)n1)CCC2
Result: 52.6

Ask: Find IC50 (human KHK-A (Homo sapiens (Human))) for the entry NC(=O)c1ccc(-c2nc(N3CC[C@@H]3CO)nc3c2CCC3)cc1
Result: 60.3

Ask: // fetch human KHK-A (Homo sapiens (Human)) IC50 for C[C@H]1CCN1c1nc2c(c(-c3cccc(C(=O)NCC(=O)O)c3)n1)CCC2
Result: 64.8

Ask: Notebook: pull reported IC50 for human KHK-A (Homo sapiens (Human)), entry C[C@H]1CCN1c1nc2c(c(-c3ccc(C45CC(C(=O)O)(C4)C5)cc3)n1)CCC2
Result: 105

* * *

# tested system: KHK-C expressed in NRK-52E cells (Homo sapiens (Human), UniProt P50053)
# Sequence (P50053 whole entry): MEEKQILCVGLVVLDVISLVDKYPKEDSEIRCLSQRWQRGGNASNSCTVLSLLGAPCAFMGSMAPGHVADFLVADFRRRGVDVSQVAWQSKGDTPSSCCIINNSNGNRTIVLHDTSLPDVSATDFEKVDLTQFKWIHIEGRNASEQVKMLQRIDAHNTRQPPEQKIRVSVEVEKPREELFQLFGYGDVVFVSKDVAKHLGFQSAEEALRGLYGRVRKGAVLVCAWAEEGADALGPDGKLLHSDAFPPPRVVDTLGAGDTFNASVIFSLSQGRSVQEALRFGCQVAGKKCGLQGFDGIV
# procedure details: KHK-C Cell-based Assay (EC50), NRK CTG, fructose-mediated ATP-depletion
Assign labels as follows, please: YES for EC50 below 40 nM; NO for EC50 equal to or exceeding 40 nM.

Ask: Report whether reported EC50 is lower than 40 nM (strictly) for C[C@H]1CCN1c1nc2c(c(-c3cccc(NS(=O)(=O)CC(=O)O)c3)n1)CCC2 [Example 81]
Result: NO

Ask: Dear reviewer, please state whether CC1(C#N)CCN1c1nc2c(c(-c3cccc(S(C)(=O)=O)c3)n1)CCC2 (stereo not drawn) [Example 714] has EC50 strictly beneath 40 nM.
Result: NO

Ask: Here's an entry: C[C@H]1[C@H](O)CN1c1nc(-c2ccc3c(=O)[nH]ccc3c2)c2c(n1)C(F)(F)CC2 [Example 318] . Is its EC50 below 40 nM?
Result: YES

Ask: Quick check: EC50 of C[C@H]1[C@H](O)CN1c1nc(-c2ccc3c(c2)OC[C@@]32COC(=O)N2)c2c(n1)C(F)(F)CC2 (single isomer, unassigned) [Example 483] under 40 nM?
Result: YES

Ask: Bench note: check whether C[C@H]1[C@H](O)CN1c1nc(-c2ccc3c(c2)COCC32CCC(=O)N2)c2c(n1)C(F)(F)CC2 (stereo partly drawn) [Example 639] shows EC50 below 40 nM
Result: YES

Ask: Given the entry C[C@H](NS(C)(=O)=O)c1ccc(-c2nc(N3C[C@@H](O)[C@@H]3C)nc3c2CCC3(F)F)cc1 [Example 744] , would its reported EC50 be below 40 nM?
Result: NO

Ask: is_below(EC50, 40 nM) for C[C@H]1CCN1c1nc2c(c(-c3ccc(CO)c(F)c3)n1)CCC2 [Example 370] ?
Result: NO

Ask: Given the entry COc1ccc(-c2nc(N3C[C@@](C)(O)[C@@H]3C)nc3c2CCC3(F)F)cc1[S@@](C)(=N)=O [Example 828] , would its reported EC50 be below 40 nM?
Result: NO

Ask: hey, is EC50 for CC(=O)Nc1cccc(-c2nc(N3C[C@@H](O)[C@@H]3C)nc3c2CCC3)c1 [Example 41] lower than 40 nM or not?
Result: NO

Ask: # check: EC50 < 40 nM for C[C@H]1CCN1c1nc(-c2cccc(S(N)(=O)=O)c2)c2c(n1)C(F)(F)CC2 [Example 321]
Result: YES

Ask: Is 40 nM strictly greater than the compound's reported EC50? compound: Cc1nc2cc(-c3nc(N4CC[C@@H]4C)nc4c3CCC4)ccc2c(=O)[nH]1 [Example 387]
Result: YES

Ask: # check: EC50 < 40 nM for COc1ccc(-c2nc(N3C[C@@H](F)[C@@H]3C)nc3c2CCC3(F)F)cc1[S@@](C)(=N)=O [Example 561]
Result: YES

Ask: Find out if reported EC50 for C[C@H]1CCN1c1nc2c(c(-c3ccc4nc(N)sc4c3)n1)CCC2 [Example 734] is less than 40 nM
Result: NO

Ask: Dear reviewer, please state whether C[C@H]1[C@H](O)CN1c1nc(-c2ccc3c(c2)OCC32NC(=O)N(C3COC3)C2=O)c2c(n1)C(F)(F)CC2 (stereo partly drawn) [Example 694] has EC50 strictly beneath 40 nM.
Result: YES

Ask: Given C[C@H]1CCN1c1nc2c(c(-c3cccc(C(=O)NCC(N)=O)c3)n1)CCC2 [Example 216] , is recorded EC50 strictly lower than 40 nM?
Result: NO

Ask: Is it true that EC50 reported for C[C@H]1[C@H](O)CN1c1nc(-c2ccc3c(c2)OCCNC3)c2c(n1)C(F)(F)CC2 [Example 760] is less than 40 nM?
Result: YES

Ask: Decide: EC50 of N#C[C@H]1CCN1c1nc(-c2ccc(C(N)=O)cc2)c2c(n1)C(F)(F)CC2 [Example 707] strictly below 40 nM?
Result: NO

Ask: Is EC50 strictly under 40 nM for the entry C[C@H]1CCN1c1nc2c(c(-c3ccc(CO)cc3)n1)CCC2 [Example 374] ?
Result: NO

Ask: Field: below-cutoff. Rule: recorded EC50 strictly less than 40 nM. Subject: C[C@H]1CCN1c1nc2c(c(-c3ccc4c(c3)S(=O)(=O)NC4=O)n1)CCC2 [Example 86]
Result: NO

Ask: EC50 under 40 nM? Item: C[C@@H](NS(C)(=O)=O)c1cccc(-c2nc(N3C[C@@H](O)[C@@H]3C)nc3c2CCC3(F)F)c1 [Example 741]
Result: NO

Ask: Say whether its EC50 is strictly beneath 40 nM. Entry: C[C@@H](NS(C)(=O)=O)c1ccc(-c2nc(N3CC[C@@H]3C)nc3c2CCC3(F)F)cc1 [Example 748]
Result: NO

* * *

# procedure details: pKa analysis by capillary electrophoresis (pKa PRO Analyzer, co-solvent method)
# Assay type: physicochemical
# experimental parameters: methanol/aqueous co-solvent buffers, co-solvent method (60% to 30% methanol buffers), pH range 1.7-11.2, read-out: 1st pKa
Would you mind labelling by pKa? At or over 4 is fulfilled, under is not fulfilled.

Ask: API: above_or_equal(metric=pKa, cutoff=4) for item C[C@H]1CCN1c1nc2c(c(-c3cccc(S(N)(=O)=O)c3)n1)CCC2 [Example 192]
Result: fulfilled

Ask: Check this molecule for pKa at or above 4: C[C@H]1CCN1c1nc2c(c(-c3ccns3)n1)CCC2 [Example 13]
Result: not fulfilled

Ask: Does pKa meet or surpass 4 for C[C@H]1[C@H](O)CN1c1nc(-c2ccc3c(c2)S(=O)(=O)CC3N)c2c(n1)C(F)(F)CC2 (some centres unmarked) [Example 658] ?
Result: fulfilled

Ask: Hi team, for C[C@H]1[C@H](O)CN1c1nc(-c2ccc([C@H](N)CC#N)cc2)c2c(n1)C(F)(F)CC2 (single isomer, unassigned) [Example 778] , is the recorded pKa at or above 4?
Result: fulfilled

Ask: Record C[C@H]1[C@H](O)CN1c1nc(-c2cn(C3CNC3)nn2)c2c(n1)C(F)(F)CC2 [Example 647] ; criterion: pKa no lower than 4. Met?
Result: fulfilled

Ask: For this molecule, is measured pKa 4 or higher? C[C@H]1[C@H](O)CN1c1nc(-c2ccc3c(c2)S(=O)(=O)CCNC3)c2c(n1)C(F)(F)CC2 [Example 489]
Result: fulfilled

Ask: Does the reported pKa for C[C@H]1CCN1c1nc2c(c(-c3ccc(CN)cc3)n1)CCC2 [Example 188] fall at or above the 4 mark?
Result: fulfilled

Ask: Kindly determine if pKa recorded for C[C@H]1CCN1c1nc2c(c(-c3cccc(CN4CCC4)c3)n1)CCC2 [Example 347] is above or exactly 4.
Result: not fulfilled

Ask: Item NC1(c2ccc(-c3nc(N4CC[C@@H]4C(F)(F)F)nc4c3CCC4(F)F)cc2)CS(=O)(=O)C1 [Example 802] with pKa of 4 or above?
Result: fulfilled

Ask: Is it the case that C[C@H]1[C@H](O)CN1c1nc(-c2ccc(C3(C#N)CNC3)cc2)c2c(n1)C(F)(F)CC2 [Example 777] has pKa reaching or exceeding 4?
Result: fulfilled

Ask: Does C[C@H]1[C@H](O)CN1c1nc(-c2ccc(C3(N)CCOC3)cc2)c2c(n1)C(F)(F)CC2 (some centres unmarked) [Example 516] have a reported pKa of at least 4?
Result: fulfilled

Ask: Hello, I need to know if C[C@H]1[C@H](O)CN1c1nc(-c2cccc([S@@](C)(=N)=O)c2)c2c(n1)C(F)(F)CC2 (single isomer, unassigned) [Example 492] has measured pKa not below 4. Thanks!
Result: not fulfilled

Ask: Check this molecule for pKa at or above 4: C[C@H]1CCN1c1nc2c(c(-c3ccccc3)n1)CCC2 [Example 331]
Result: fulfilled

Ask: Is reported pKa greater than or equal to 4 here: C[C@H]1CCN1c1nc2c(c(-c3ccc4c(=O)[nH]ccc4c3)n1)CCC2 [Example 364]
Result: fulfilled

Ask: Given C[C@H]1CCN1c1nc2c(c(-c3cnsc3)n1)CCC2 [Example 14] , state whether its pKa is at least 4.
Result: fulfilled

Ask: Evaluate C[C@H]1[C@H](O)CN1c1nc(-c2ccc3c(c2)OC[C@@H]3NS(C)(=O)=O)c2c(n1)C(F)(F)CC2 [Example 466] : pKa at minimum 4?
Result: fulfilled

Ask: I'd appreciate it if you could say whether C[C@H]1[C@H](O)CN1c1nc2c(c(-c3cccc(S(N)(=O)=O)c3)n1)CCC2 [Example 209] has pKa at least equal to 4.
Result: not fulfilled

Ask: Kindly determine if pKa recorded for C[C@H]1CCN1c1nc2c(c(-c3ccncc3)n1)CCC2 [Example 22] is above or exactly 4.
Result: not fulfilled

Ask: Item C[C@H]1CCN1c1nc2c(c(-c3ccn(C)n3)n1)CCC2 [Example 17] with pKa of 4 or above?
Result: fulfilled

Ask: Exam item: decide whether the reported pKa for C[C@H]1CCN1c1nc2c(c(-c3cccc(CN)c3)n1)CCC2 [Example 329] is at least 4.
Result: fulfilled

Ask: Does the reported pKa for C[C@H]1[C@H](O)CN1c1nc(-c2ccc3c(c2)S(=O)(=O)C[C@H]3N)c2c(n1)C(F)(F)CC2 (single isomer, unassigned) [Example 663] fall at or above the 4 mark?
Result: fulfilled

Ask: Determine whether measured pKa meets or exceeds 4 for C[C@H]1CCN1c1nc2c(c(-c3ccc(C(N)=O)c(F)c3)n1)CCC2 [Example 305]
Result: fulfilled

Ask: Does the reported pKa for C[C@H]1CCN1c1nc2c(c(-c3cccnc3)n1)CCC2 [Example 15] fall at or above the 4 mark?
Result: not fulfilled

Ask: Could you please find out whether C[C@H]1CCN1c1nc2c(c(-c3ccc4c(N)nc(N)nc4c3)n1)CCC2 [Example 147] has pKa that meets 4 or exceeds it?
Result: not fulfilled

Ask: Would you say C[C@H]1CCN1c1nc2c(c(-c3cnn(C)c3)n1)CCC2 [Example 23] shows pKa at minimum 4?
Result: fulfilled

Ask: Hello, I need to know if C[C@H]1[C@H](O)CN1c1nc(-c2ccc(C(N)CC#N)cc2)c2c(n1)C(F)(F)CC2 (some centres unmarked) [Example 771] has measured pKa not below 4. Thanks!
Result: fulfilled
